Measured log10 of IC50 values are reported for all entries that follow.
biological target: CREBBP (1084-1701) (Homo sapiens, UniProt Q92793); construct: measured in the following biochemical assay using CREBBP (1084-1701); purchased; assay: Biochemical assay for CREBBP (1084-1701), SAMDI; details: SAMDI, read-out: CREBBP Biochemistry IC50
Sequence (Q92793 1084-1701): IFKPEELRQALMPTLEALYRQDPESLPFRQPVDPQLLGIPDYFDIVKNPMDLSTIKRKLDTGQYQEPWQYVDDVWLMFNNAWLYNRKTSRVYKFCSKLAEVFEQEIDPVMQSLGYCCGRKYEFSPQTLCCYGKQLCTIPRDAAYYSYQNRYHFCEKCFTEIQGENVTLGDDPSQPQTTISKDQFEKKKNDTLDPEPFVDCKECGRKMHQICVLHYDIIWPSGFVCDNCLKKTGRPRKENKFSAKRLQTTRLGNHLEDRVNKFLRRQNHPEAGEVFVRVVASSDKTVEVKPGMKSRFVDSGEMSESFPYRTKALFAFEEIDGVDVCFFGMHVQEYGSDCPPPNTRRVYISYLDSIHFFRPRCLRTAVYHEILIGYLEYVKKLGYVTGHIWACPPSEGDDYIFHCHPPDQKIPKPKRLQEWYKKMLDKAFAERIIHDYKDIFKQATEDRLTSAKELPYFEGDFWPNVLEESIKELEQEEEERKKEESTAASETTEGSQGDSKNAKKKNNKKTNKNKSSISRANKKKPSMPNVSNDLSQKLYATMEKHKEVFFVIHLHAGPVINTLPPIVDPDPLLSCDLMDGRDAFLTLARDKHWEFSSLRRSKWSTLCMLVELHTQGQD
Heads up, the numbers here are log10 of IC50 in µM units.

Before answering, review these 3 worked examples.
# CHEMICAL SMILES, TESTED SYSTEM, READOUT VALUE
measured = [
    ("CCn1ncc(CN(C)C(=O)c2nc(-c3cc4nc[nH]c4cc3OC)nc3ccc(Cl)cc23)c1C", "CREBBP (1084-1701) (Homo sapiens, UniProt Q92793)", -0.24),
    ("Cc1c(CN(C)C(=O)c2cc(-c3cccc(Cl)c3)nc3ccccc23)cnn1C", "CREBBP (1084-1701) (Homo sapiens, UniProt Q92793)", 2.29),
    ("CCn1ncc(CN(C)C(=O)c2nc(-c3ccnc(N)c3)nc3ccc(Cl)cc23)c1C", "CREBBP (1084-1701) (Homo sapiens, UniProt Q92793)", 0.20),
]

log10 of IC50 for CREBBP (1084-1701) (Homo sapiens, UniProt Q92793) with input CCn1ncc(CN(C)C(=O)c2nc(-c3cc(N)c4cn[nH]c4c3)nc3ccc(Cl)cc23)c1C equals -2.60

log10 of IC50 for CREBBP (1084-1701) (Homo sapiens, UniProt Q92793) with input CCn1ncc(CN(C)C(=O)c2nc(-c3ccc(OCCN(C)C(=O)OC(C)(C)C)c(Cl)c3)nc3ccc(Cl)cc23)c1C equals 0.34

log10 of IC50 for CREBBP (1084-1701) (Homo sapiens, UniProt Q92793) with input Cc1c(CN(C)C(=O)c2nc(-c3cccc(Cl)c3)nc3ccc(Cl)cc23)cnn1C(C)C equals -1.55

log10 of IC50 for CREBBP (1084-1701) (Homo sapiens, UniProt Q92793) with input CCn1ncc(CN(C)C(=O)c2nc(-c3cnc4n[nH]c(N)c4c3)nc3ccc(Cl)cc23)c1C equals -0.67

###

Measured pIC50 values are reported for all entries that follow.
tested on: H3K18Ac in HB-CLS-2 cells; assay: H3K18AC in-cell western (ICW) assay; format: cell-based; conditions: H3K18Ac in-cell western, HB-CLS-2 cells; read-out: CREBBP ICW IC50
Keep in mind that pIC50 stands for -log10 of concentration in molar terms.

Before answering, review these 8 worked examples.
# COMPOUND, pIC50
measured = [
    ("CCn1ncc(CN(C)C(=O)c2nc(-c3cn(CCCN(C)C(=O)OC(C)(C)C)cn3)nc3ccc(Cl)cc23)c1C [Compound 230]", 4.70),
    ("CCn1ncc(CN(C)C(=O)c2nc(-c3cnn(CCCNC)c3)nc3ccc(Cl)cc23)c1C [Compound 250]", 4.70),
    ("CCc1onc(CN(C)C(=O)c2nc(-c3ccccc3Cl)nc3ccc(Cl)cc23)c1C [Compound 231]", 4.70),
    ("CCc1cc(-c2nc(C(=O)N(C)Cc3cnn(CC)c3C)c3cc(Cl)ccc3n2)ccc1OCCCN(C)C(=O)OC(C)(C)C [Compound 209]", 4.70),
    ("CCn1ncc(CN(C)C(=O)c2nc(-n3nc(N)c4ccc(C)cc43)nc3ccc(Cl)cc23)c1C [Compound 419]", 5.24),
    ("CCn1ncc(CN(C)C(=O)c2nc(N3CCNCC3)nc3ccc(Cl)cc23)c1C [Compound 202]", 4.70),
    ("CCn1ncc(CN(C)C(=O)c2nc(-c3cnn(CCNC)c3)nc3ccc(Cl)cc23)c1C [Compound 213]", 4.70),
    ("CCn1ncc(CN(C)C(=O)c2nc(-c3cccc(Cl)c3)nc3ccc(COC)cc23)c1C [Compound 357]", 6.14),
]

The recorded pIC50 for CCn1ncc(CN(C)C(=O)c2nc(-c3ccc(OCCNC(=O)C(C)C)c(Cl)c3)nc3ccc(Cl)cc23)c1C [Compound 416] is 6.40

The recorded pIC50 for CCn1ncc(CN(C)C(=O)c2nc(-c3ccccc3OC)nc3ccc(Cl)cc23)c1C [Compound 281] is 5.89

The recorded pIC50 for CCn1ncc(CN(C)C(=O)c2nc(-n3cc(CCN(C)C)cn3)nc3ccc(Cl)cc23)c1C [Compound 405] is 5.80

The recorded pIC50 for CCn1ncc(CN(C)C(=O)c2cc(-c3cn[nH]c3N)nc3ccc(Cl)cc23)c1C [Compound 227] is 4.70

The recorded pIC50 for CCN(Cc1cnn(CC)c1C)C(=O)c1cc(-c2ccccc2Cl)nc2ccc(Cl)cc12 [Compound 302] is 5.05

The recorded pIC50 for CCn1ncc(CN(C)C(=O)c2nc(-c3cccc(Br)c3)nc3ccc(Cl)cc23)c1C [Compound 283] is 6.17

The recorded pIC50 for CCn1ncc(CN(C)C(=O)c2nc(-c3cnn(C4CCNC4)c3)nc3ccc(Cl)cc23)c1C (stereo not shown) [Compound 206] is 4.70

The recorded pIC50 for CCn1ncc(CN(C)C(=O)c2cc(-c3ccc(OCCNC(C)=O)c(C)n3)nc3ccc(Cl)cc23)c1C [Compound 431] is 6.08

The recorded pIC50 for CCn1ncc(CN(C)C(=O)c2nc(-c3cnn(CCC(O)CNC)c3)nc3ccc(Cl)cc23)c1C (stereo not shown) [Compound 223] is 4.70

These data points were gathered from patent US20220144812A1.
